Test: Solubility in various media at 25° C. after 24 hours equilibration (UPLC)
Format: physicochemical
Conditions: borate buffer pH 10.0; after 24 hours equilibration
recorded_endpoint: final pH of the sample (in parentheses)

Some compounds with recorded final pH of the sample (in parentheses):
{"columns": ["compound", "final pH of the sample (in parentheses)"],
 "data": [
  ["Cc1nc(C)c(C(=O)Nc2ccc(F)c(-c3nc4ncc(-c5ncccc5C)cn4n3)c2)o1 [Amorphous Compound I Fumaric Acid (1:1)]", "(9.6)"],
  ["Cc1nc(C)c(C(=O)Nc2ccc(F)c(-c3nc4ncc(-c5ncccc5C)cn4n3)c2)o1 [Compound I Fumaric Acid Co-crystal (2:1)]", "(9.6)"],
  ["Cc1nc(C)c(C(=O)Nc2ccc(F)c(-c3nc4ncc(-c5ncccc5C)cn4n3)c2)o1 [Form B]", "(8.1)"],
  ["Cc1nc(C)c(C(=O)Nc2ccc(F)c(-c3nc4ncc(-c5ncccc5C)cn4n3)c2)o1 [Free Form]", 8.58]
]}

(Q) Param item = Cc1nc(C)c(C(=O)Nc2ccc(F)c(-c3nc4ncc(-c5ncccc5C)cn4n3)c2)o1 [Amorphous Compound I Fumaric Acid (2:1)] ; retrieve measured final pH of the sample (in parentheses).
(A) (9,7)
